# protocol_description: NCI Yeast Anticancer Drug Screen. Data for the mec2-1 strain (AID 157)
# settings: S. cerevisiae mec2-1 strain, at 50.0 µM
# Method: Growth inhibition of yeast strains with defined genetic alterations is measured as a screen for potential anti-cancer activity. Selected strains with alterations in DNA damage repair or cell cycle control were exposed to compounds and growth inhibition was measured relative to vehicle treated controls. The strain used in this assay is mec2-1
This is part of a sample that, as a whole, favours compounds with a hit. Of some 79,000 tested, about 15% had one in any assay. Active and inactive are the calls of the source. Cut-off read from the data, not from the text of the source: active = growth inhibition above about 70%; inactive = the rest.
Possible outcomes: active, inactive

compound	class
CN(C)NC(=S)C(F)(F)F	inactive
O=C(O)/C=C/c1ccc2c(c1)CC1(Cc3ccccc3C1)C2	inactive
O=c1[nH]c(C(F)(F)F)c(F)c(=O)[nH]1	active
CC(C)CCCCCCCCCCCCC(=O)NCC(=O)NC1C(O)C(O)C(Nc2ncnc3nc[nH]c23)OC1C(O)CO (stereo not given)	inactive
O=C(OC1C2CCC2C2CC21)c1cc([N+](=O)[O-])cc([N+](=O)[O-])c1 (stereo not given)	active
CCOc1ccc2c(c1)[n+]([O-])c(-c1ccc([N+](=O)[O-])cc1)c(N)[n+]2[O-]	active
CCOC(=O)N1C=C(C(=O)OC)C(c2ccccc2)C(C(=O)OC)=C1	inactive
O=S(=O)(Nc1ccccc1C(F)(F)F)c1ccc(F)cc1	inactive
COc1ccc2c(c1)c1c(C)c3cnccc3c(C)c1n2CCCN	inactive
CC(C)C12CCC3(CCC4C(C)(C(=O)O)CCCC4(C)C3C1)C(CN)C2 (stereo not given)	active

====

Listed here are molecules together with their documented growth inhibition.
# protocol_description: NCI Yeast Anticancer Drug Screen. Data for the bub3 strain (AID 167)
# settings: S. cerevisiae bub3 mutant strain, at 5.0 µM (retest, dose inferred, filed as 0.5), hits give high values
About 79,000 compounds went through this panel and 15% of them were active in at least one assay; those are over-represented in the sample as a whole.

molecule	growth inhibition [%]
CCOC(=O)Cc1csc2[n+]1C(=O)/C(=C/c1ccc(OC)c(OC)c1)S2	-22
Oc1ccccc1/C=N\N=C\c1ccccc1O	-70
O=C(Nc1ccc(Cl)cc1)OCC1C2C=CC(C2)C1CO (centres undefined)	-3
Cc1ccc(S(=O)(=O)OCC2OC(c3ccccc3)OC3C(CO)OC(c4ccccc4)OC23)cc1 (centres undefined)	0
CC12OC(=O)C(C(N)=O)=C1C=C(c1ccccc1)CC2c1ccccc1 (centres undefined)	-4
COc1ccc2nc3cccc([N+](=O)[O-])c3c(NCCO)c2c1	24
CC1=NOC(=O)/C1=C/c1ccc(Cl)c(Cl)c1	-3
CCCCCC1OC(CCCCC)OC(CCCCC)O1 (centres undefined)	-12
O=C(CBr)Nc1ccc(Cc2ccc(NC(=O)CBr)cc2)cc1	17
CCCCCCCCCCCCCCCCCc1nnc(N)o1	6
N#C/C(=C/c1ccc([N+](=O)[O-])o1)c1ccccc1	-4
CCN(CC)CCC(=O)c1ccc2c3c(n(C)c2c1)CCCC3	-5
O=[N+]([O-])c1ccc(Sc2ccsc2)c([N+](=O)[O-])c1	11
COC(=O)c1ccc(C)cc1C1CN=NC12Cc1cccc(C)c1C2=O (centres undefined)	-2
CN(c1ccc(C(N)=O)cc1)c1c(O)c2ccccc2[nH]c1=O	-4
CC(=O)c1cccc([N+](=O)[O-])c1	1
CC(C)C12CCC3(CCC4C(C)(C(=O)O)CCCC4(C)C3C1)C(CN)C2 (centres undefined)	-4
COc1cc(NS(=O)(=O)c2ccc(NC(C)c3ccc4cccnc4c3O)cc2)nc(OC)n1 (centres undefined)	-2
O=[N+]([O-])/C(C(Cl)=C(Cl)Cl)=C(/Cl)SCc1ccccc1	99
CC(C)(C)c1ccc(-c2nc3ccccc3c(=O)o2)cc1	-1
Cc1cc2c(Br)cc(Br)c(O)c2nc1C(=O)c1ccccc1	20
C=C1CCCCC1C(C(=O)O)(c1ccccc1)c1ccccc1 (centres undefined)	51
Clc1nc2ccccc2nc1N1CCCCCC1	9
CC(=O)c1c2c(cc3c1CC1(Cc4ccccc4C1=O)C3)CCC2 (centres undefined)	-4

====

# protocol_description: NCI Yeast Anticancer Drug Screen. Data for the cln2 rad14 strain (AID 165);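 note: 0% = growth equal to vehicle treated cultures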
# settings: S. cerevisiae cln2 rad14 strain, at 50.0 µM (retest, dose inferred, filed as 5.0)
# Method: Growth inhibition of yeast strains with defined genetic alterations is measured as a screen for potential anti-cancer activity. Selected strains with alterations in DNA damage repair or cell cycle control were exposed to compounds and growth inhibition was measured relative to vehicle treated controls. The strain used in this assay is cln2 rad14
About 79,000 compounds went through this panel and 15% of them were active in at least one assay; those are over-represented in the sample as a whole. Calls of active or inactive are those of the source. No stated cut-off is given here; in the data, active means growth inhibition above about 70%; inactive means the rest.
Possible outcomes: class 1 for active, class 0 for inactive

molecule	class
CC(CC(C)[C@H]1CCC2[C@H]3C(CC[C@@]21C)[C@@]1(C)CCC(O)C[C@H]1C[C@@H]3O)C(=O)O (stereo not given in full)	class 1
N#CC(C#N)C(c1ccccc1)c1ccccc1	class 0
COC(O)C12OC3CO[Si](C(C)C)(C(C)C)O[Si](C(C)C)(C(C)C)OC3C1Oc1nc(=O)ccn12 (stereo not given)	class 1
Cc1nn(CCO)c(=O)c(C#N)c1C	class 0
CCN(CC)C(=S)n1c(=S)nc(N(CC)CC)sc1=S	class 1

====

# protocol_description: NCI Yeast Anticancer Drug Screen. Data for the bub3 strain (AID 167)
# settings: S. cerevisiae bub3 mutant strain, at 50.0 µM (retest, dose inferred, filed as 5.0), hits give high values
This is part of a sample that, as a whole, favours compounds with a hit. Of some 79,000 tested, about 15% had one in any assay.
Cut-off 60% on growth inhibition, inclusive. At or above means fulfilled; below means not fulfilled.

molecule	class
CCSC(=Nc1nc2ccc(NC(C)=O)cc2s1)SCC	fulfilled
CNc1nc(N)nc(N(C)c2ccc(Br)cc2)c1N=O	fulfilled
C/C(=N/NC(=O)c1ccccc1S(N)(=O)=O)C(CN1CCCCC1)C(C1=C(O)C2C=CC=CC2OC1=O)c1ccccc1 (stereo not given)	not fulfilled
CN1C(=O)C23SSC1(C)C(=O)N2c1ccccc1C3(C)C (stereo not given)	fulfilled
Nc1cc(Cl)ccc1S	fulfilled
C1=C(c2ccccc2)C(=Nc2ccccc2)SC1=Nc1ccccc1	fulfilled
CCCOC1(C)CC(c2cc(OC)c(OC)c(OC)c2)c2cc3c(cc2O1)OCO3 (stereo not given)	fulfilled
O=[N+]([O-])c1ccccc1Oc1ccc([N+](=O)[O-])c(C(F)(F)F)c1	fulfilled
CN(Cc1cnc2nc(N)nc(N)c2n1)c1ccc(C(=O)NC(CCC(=O)O)C(=O)O)c(Cl)c1Cl (stereo not given)	fulfilled
O=c1oc(-c2ccccc2)nc2ccccc12	not fulfilled
CC(Cc1ccccc1)N1C(=O)C=CC1=O (stereo not given)	fulfilled
CCCCCCCNC1CCCc2cc(OC)ccc21 (stereo not given)	not fulfilled
O=Nc1c(NO)c2ccccc2c2ccccc12	fulfilled
CCCN(CCC)C(=O)C(C)C	not fulfilled
Cc1ccc(C(=O)CC(O)(C(F)(F)F)C(F)(F)F)cc1[N+](=O)[O-]	fulfilled
CCCCCCCCCCCCCCCCCc1nnc(N)o1	not fulfilled
COC12C(COC(N)=O)C3=C(C(=O)C(C)=C(N)C3=O)N1CC1C2N1C(=O)c1ccc(Cl)c(Cl)c1 (stereo not given)	fulfilled
Oc1ccc(C2Oc3ccccc3C=C2c2ccccc2)cc1 (stereo not given)	fulfilled
O=C(O)CCC(=O)NCCNC(=O)CC(=O)O	not fulfilled
CCC(CO)Nc1nc2cc(Br)ccc2c2ccc(Br)cc12 (stereo not given)	fulfilled
CCN(CC)CCC(=O)c1ccc2c3c(n(C)c2c1)CCCC3	not fulfilled
COC(=O)c1nc(=S)[nH]c(C(=O)OC)c1C(=O)c1ccc([N+](=O)[O-])cc1	fulfilled
O=C1CCSC(=S)N1c1ccccc1C(F)(F)F	fulfilled
Cn1c(=O)c2c(nc(OCC(C)(C)C)n2C)n(C)c1=O	not fulfilled
CCCCCCCCCCNC(=O)C[n+]1cccc(C(=O)NCc2ccccc2)c1	fulfilled
[CH3][Sn]1([CH3])[O]C(=O)CCN=Cc2c(ccc3ccccc23)[O][Sn]([CH3])([CH3])[O]C(=O)CCN=Cc2c(ccc3ccccc23)[O]1	fulfilled
CC1(C)CCC(C)(C)c2cc(C(=O)Nc3ccc(C(=O)O)cc3)ccc21	fulfilled
OC(c1cc(-c2ccccc2)nc2c(Cl)cc(Cl)cc12)C1CCCCN1 (stereo not given)	fulfilled
Cc1ccc(/C=C2\CCCC(CN(C)C)C2=O)cc1 (stereo not given)	fulfilled
O=S(=O)(Nc1ccccc1-c1ccc(Cl)cc1)c1ccccc1	fulfilled
CCOC(=O)/C(C)=N/Nc1cc(Cl)ccc1O	not fulfilled
O=C(Nc1ccccc1Cl)c1ccc(Cl)c(Cl)c1	not fulfilled
Cc1ccc(S(=O)(=O)NNC(C[N+](=O)[O-])c2ccccc2)cc1 (stereo not given)	fulfilled
[O-]/[N+](O)=C\c1ccccn1	not fulfilled
O=C(Nc1c(Cl)cc([N+](=O)[O-])cc1Cl)/C(=N\Nc1cccc(Cl)c1)c1c(O)c2ccccc2oc1=O	not fulfilled
CC1=C(C(=S)Nc2ccc(Cl)c(C(=O)OC(C)C)c2)SCCO1	fulfilled
OC(CCl)c1ccc2ccc3c(c2c1)Nc1ccccc1S3 (stereo not given)	fulfilled
COC(=O)c1nnn(-c2cccc(C(F)(F)F)c2)c1C(=O)c1ccc(Cl)c(Cl)c1	fulfilled
O=[N+]([O-])c1ccc(/C=C/[n+]2ccc3ccccc3c2)o1	fulfilled
C=Cc1cc(O)cc2c1-c1ccc(O)c(C)c1CC2	fulfilled
O=[N+]([O-])c1ccc(N2CCCC(n3cccc3)C2)c([N+](=O)[O-])c1 (stereo not given)	not fulfilled
CC/C(=C(\CC)c1ccc(O)c(CN(CC)CC)c1)c1ccc(OC)cc1	fulfilled
c1ccc(CN(CCCOc2ccccc2)Cc2ccccc2)cc1	fulfilled
O=c1c(O)cc2c(O)oc3c(=O)c(O)c(O)c4c(O)oc1c2c43	fulfilled
